# Measurement Target: T1, human IL-1RAcP on 293T/17-FR cells (human, UniProt Q9NPH3 21-570)
# T1 sequence (looked up): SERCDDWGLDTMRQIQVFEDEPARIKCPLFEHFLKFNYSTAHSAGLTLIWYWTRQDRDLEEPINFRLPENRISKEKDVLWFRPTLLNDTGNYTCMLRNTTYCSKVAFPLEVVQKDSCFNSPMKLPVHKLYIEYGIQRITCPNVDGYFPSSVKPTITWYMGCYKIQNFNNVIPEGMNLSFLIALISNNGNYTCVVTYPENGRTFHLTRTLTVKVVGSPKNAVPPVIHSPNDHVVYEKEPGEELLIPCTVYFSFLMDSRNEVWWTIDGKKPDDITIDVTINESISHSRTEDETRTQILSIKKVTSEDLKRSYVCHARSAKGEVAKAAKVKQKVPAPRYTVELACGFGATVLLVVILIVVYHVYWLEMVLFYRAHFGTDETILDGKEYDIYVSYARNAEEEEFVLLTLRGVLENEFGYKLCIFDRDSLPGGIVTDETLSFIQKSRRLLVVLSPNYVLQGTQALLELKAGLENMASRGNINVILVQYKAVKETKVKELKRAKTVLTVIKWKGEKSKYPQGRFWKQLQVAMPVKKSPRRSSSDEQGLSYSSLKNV
# Experiment: cell-based or functional assay
Property: functional reporter gene assay (% inhibition), 5 µg/mL mAb (%)
The reply should contain only the number, in %.

Solved entries (count: 3):
Binder: P013.S.01.B.D04 (antibody, V domains shown, rabbit monoclonal antibody; also called P013.A.00088.B09) VH: QEQLKESGGRLVTPGGSLTLTCTVSGFSLSIYAMGWFRQAPGKGLEWIGDIYPGSDSTWYASWAKGRFTISKTSTTVDLKITSPTTEDTATYFCAREIDAGYVGYGFDLWGQGTLVTVSS VL: AQALTQTPSSVSAAVGGTVTINCQSSQSVYSDYLAWYQQKPGQSPKLLIYKASKLASGVPSRFKGSGSGTEFTLTISGVQSDDAATYYCQATYYSVGWYRAFGGGTEVVVK
Reported: 89
--
Binder: P013.S.02.B.C04 (antibody, V domains shown, rabbit monoclonal antibody; also called P013.A.00085.H07) VH: QQLEQSGGGLVKPGGSLELCCKASGFSLSSSYWICWVRQAPGKGLEWIGCIYAGSSGSTYYANWVNGRFTLSRDIDQSTGCLQLSSLTAADTAMYYCARSIVDFSSGWGDLWGQGTLVTVSS VL: ALVMTQTPSPVSAAVGGTVTINCQASEDIYSNLAWYQQKPGQPPKLLMYGVSTLASGVPSRFSDSGSGTEFTLTISGLQSDDAATYYCLGVYTYISDVYYTFGGGTEVVVK
Reported: 91
--
Binder: P013.S.01.B.G03 (antibody, V domains shown, rabbit monoclonal antibody; also called P013.A.00030.C03) VH: QEQLVESGGGLVQPEGSLTLTCKASGFDFSSNYYMCWVRQAPGKGLELIACIYTNSGNTWSASWAKGRFTISKTSSTTVTLQMTSLTAADTATYFCARDLNYPDTSNLWGQGTLVTVSS VL: DIVMTQTPASVEAAVGGTVTIKCQASQSIGYYLAWYQQKPGQPPKLLISRASTLASGVPSRFKGSGSGTQFTLTISDLESADVATYYCQSYYNSDSDAFGGGTEVVVK
Reported: 92

We now examine a further binder.
Requested read-out: functional reporter gene assay (% inhibition), 5 µg/mL mAb. Entry: P013.S.01.B.D02 (antibody, V domains shown, rabbit monoclonal antibody; also called P013.A.00022.E06) VH: LEQSGGGAEGGLVKPGGSLELCCKASGFSLTTNYWICWVRQAPGKGLEWIGCIYANSVGSTYYASWVNGRFTLSRDIDQSTGCLQLNSLTAADTAMYYCARVDPGYSFDAFDPWGPGTLVTVSS VL: ALVMTQTPSPVSAAVGGTVTINCQASEDIYSNLAWFQQKPGQPPKLLIYRASTLASGVPSRFSGSGSGTEFTLTISALQSDDAATYYCLGVRTYFNTLNNSFGGGTEVVVK
92
